# assay_target: UniProt:O88446
# Sequence (O88446 whole entry): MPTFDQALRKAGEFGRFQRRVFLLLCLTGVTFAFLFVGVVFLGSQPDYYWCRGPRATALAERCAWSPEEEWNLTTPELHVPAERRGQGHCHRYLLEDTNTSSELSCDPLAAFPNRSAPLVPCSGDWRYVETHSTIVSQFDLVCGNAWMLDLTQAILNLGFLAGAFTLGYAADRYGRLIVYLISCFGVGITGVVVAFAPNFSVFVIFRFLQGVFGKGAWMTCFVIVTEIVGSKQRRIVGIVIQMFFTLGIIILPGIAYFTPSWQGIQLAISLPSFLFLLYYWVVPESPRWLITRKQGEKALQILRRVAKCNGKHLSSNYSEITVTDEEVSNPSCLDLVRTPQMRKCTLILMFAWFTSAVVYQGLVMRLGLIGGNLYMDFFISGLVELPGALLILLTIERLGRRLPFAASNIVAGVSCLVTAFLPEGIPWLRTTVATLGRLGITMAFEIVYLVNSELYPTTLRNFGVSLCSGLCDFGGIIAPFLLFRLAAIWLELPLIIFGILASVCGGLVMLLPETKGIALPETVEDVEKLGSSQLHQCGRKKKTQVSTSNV
# protocol_description: TP_TRANSPORTER: inhibition of MPP+ uptake (MPP+: 1 uM) in OCT3-expressing HRPE cells
# Assay type: functional, cell-based
pIC50: −log10 of the molar value.
Short version: pIC50 at least 4 is true, less is false.

[ask] // inclusive: pIC50 at least 4? input: CNCCCN1c2ccccc2CCc2ccccc21
[reply] true

[ask] Same for CN[C@@H](C)Cc1ccccc1
[reply] false

[ask] For NCCc1ccc(O)c(O)c1 then?
[reply] true

[ask] Now the compound CC(N)Cc1ccccc1 (stereo not given)
[reply] true

Data provenance: ChEMBL document CHEMBL2074049
